Values compiled from ChEMBL document CHEMBL3877301.

Recorded inhibition for the following compounds
- target-or-test-system: Adenosine receptor A3 (Homo sapiens)
- experiment-notes: Inverse agonist activity at human adenosine A3 receptor expressed in CHO cells assessed as inhibition of cAMP accumulation at 10 uM measured after 150 mins in presence of [3H]cAMP by scintillation counting method relative to control
- Assay type: functional, cell-based
Output spec: scalar in %, unitless text.

Known results for compounds:
compound=COc1ccc(CNc2nc(N)c3nc(-c4ccco4)sc3n2)cc1 endpoint=inhibition recorded_number=104
compound=COc1ccccc1CNc1nc(N)c2nc(-c3ccco3)sc2n1 endpoint=inhibition recorded_number=91
compound=Nc1nc(NCc2cccc(O)c2)nc2sc(-c3ccco3)nc12 endpoint=inhibition recorded_number=98

input: Enter recorded inhibition with Adenosine receptor A3 (Homo sapiens) for Nc1nc(NCCc2ccc(O)cc2)nc2nc(-c3ccco3)nn12 [ZM-241385] here.
output: 101

input: Enter recorded inhibition with Adenosine receptor A3 (Homo sapiens) for Nc1nc(NCCc2ccc(O)cc2)nc2sc(-c3ccco3)nc12 here.
output: 101

input: Enter recorded inhibition with Adenosine receptor A3 (Homo sapiens) for Nc1nc(NCc2ccccc2)nc2sc(-c3ccco3)nc12 here.
output: 102

input: Enter recorded inhibition with Adenosine receptor A3 (Homo sapiens) for Nc1nc(NCCc2ccccc2)nc2sc(-c3ccco3)nc12 here.
output: 94

input: Enter recorded inhibition with Adenosine receptor A3 (Homo sapiens) for COc1ccc(CCNc2nc(N)c3nc(-c4ccco4)sc3n2)cc1 here.
output: 105

input: Enter recorded inhibition with Adenosine receptor A3 (Homo sapiens) for COc1cccc(CNc2nc(N)c3nc(-c4ccco4)sc3n2)c1 here.
output: 106
